system under test: DNA-directed RNA polymerase subunit beta (Escherichia coli (strain K12))
assay notes: bacterial RNA polymerase transcription inhibition – biochemical (AID 559)
condition: E. coli RNA polymerase, fluorescence transcription assay;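 tested at 10 µM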
The whole screen tested about 62,000 compounds, of which about 100 (0.2%) were called active. Rule as the data show it: active = inhibition above about 20%; inactive = the rest. The full list was thinned out, with actives kept by preference.
Possible outcomes: active, inactive

molecule: Cc1cc(NC(=O)CSc2nnc(-c3ccc(Cl)s3)o2)no1
system under test: DNA-directed RNA polymerase subunit beta (Escherichia coli (strain K12))
label value: inactive
//
molecule: CCNc1nc(N)nc(Oc2ccc(OCC)nn2)n1
system under test: DNA-directed RNA polymerase subunit beta (Escherichia coli (strain K12))
label value: inactive
//
molecule: Cc1oc(-c2ccccc2F)nc1CS(=O)(=O)CC(=O)NCCCN(C)C1CCCCC1
system under test: DNA-directed RNA polymerase subunit beta (Escherichia coli (strain K12))
label value: inactive
//
molecule: COc1ccccc1-c1c(C)nn2c(C)c(C(C)=O)cnc12
system under test: DNA-directed RNA polymerase subunit beta (Escherichia coli (strain K12))
label value: inactive
//
molecule: O=C(NC1CCCCC1)n1c(=O)oc2cc(S(=O)(=O)N3CCCCC3)ccc21
system under test: DNA-directed RNA polymerase subunit beta (Escherichia coli (strain K12))
label value: inactive
//
molecule: O=C(CSc1ncccn1)NCCc1ccccc1
system under test: DNA-directed RNA polymerase subunit beta (Escherichia coli (strain K12))
label value: inactive
//
molecule: Cc1cc2c(=O)n(C)c(SCC(=O)c3cc4ccccc4o3)nc2s1
system under test: DNA-directed RNA polymerase subunit beta (Escherichia coli (strain K12))
label value: active
//
molecule: Cc1ccc(S(=O)(=O)N2CCN(C(=O)CCC(=O)NC3CCCc4ccccc43)CC2)cc1 (configuration not stated)
system under test: DNA-directed RNA polymerase subunit beta (Escherichia coli (strain K12))
label value: inactive
//
molecule: O=C(CNS(=O)(=O)c1cccc(C(F)(F)F)c1)Nc1ccccc1F
system under test: DNA-directed RNA polymerase subunit beta (Escherichia coli (strain K12))
label value: inactive
//
molecule: Cn1c2c(c(=O)n(C)c1=O)C1c3ccccc3OCC1C(C)(C)O2 (configuration not stated)
system under test: DNA-directed RNA polymerase subunit beta (Escherichia coli (strain K12))
label value: inactive
//
molecule: CC(C)c1nc(-c2ccccn2)no1
system under test: DNA-directed RNA polymerase subunit beta (Escherichia coli (strain K12))
label value: inactive
//
molecule: COc1cccc2sc(Nc3nc(C)c(C(C)=O)s3)nc12
system under test: DNA-directed RNA polymerase subunit beta (Escherichia coli (strain K12))
label value: inactive
//
molecule: NC(=O)C1CCN(C(=O)c2ccc(C(F)(F)F)cc2)CC1
system under test: DNA-directed RNA polymerase subunit beta (Escherichia coli (strain K12))
label value: inactive
//
molecule: COc1ccc(N2CCN(C(=O)CSc3ncnc4c3cnn4-c3ccc(OC)cc3)CC2)cc1
system under test: DNA-directed RNA polymerase subunit beta (Escherichia coli (strain K12))
label value: inactive
//
molecule: Cc1ccc(S(=O)(=O)N2C3C=CC(C3)C2C(=O)O)cc1 (configuration not stated)
system under test: DNA-directed RNA polymerase subunit beta (Escherichia coli (strain K12))
label value: inactive
//
molecule: C=CCn1c(COc2cccc3cccnc23)nnc1SCC(=O)OC
system under test: DNA-directed RNA polymerase subunit beta (Escherichia coli (strain K12))
label value: inactive
//
molecule: COCCCNC(=O)c1ccc(CNS(=O)(=O)c2ccc(NC(C)=O)cc2)cc1
system under test: DNA-directed RNA polymerase subunit beta (Escherichia coli (strain K12))
label value: inactive
//
molecule: Clc1ccc(C2CC(c3cccs3)n3ncnc3N2)cc1Cl (configuration not stated)
system under test: DNA-directed RNA polymerase subunit beta (Escherichia coli (strain K12))
label value: inactive
//
molecule: CCCOc1ccc(NC(=O)C2CCCNC2=O)cc1 (configuration not stated)
system under test: DNA-directed RNA polymerase subunit beta (Escherichia coli (strain K12))
label value: inactive
//
molecule: COCCN(CC(=O)Nc1ccccc1C)S(=O)(=O)c1ccc(S(=O)(=O)N2CCCC2)cc1
system under test: DNA-directed RNA polymerase subunit beta (Escherichia coli (strain K12))
label value: inactive
//
molecule: CCOC(=O)N1CCN(C(=O)c2ccc3nc4cc(Cl)ccc4c(=O)n3c2)CC1
system under test: DNA-directed RNA polymerase subunit beta (Escherichia coli (strain K12))
label value: inactive
//
molecule: CCOc1cc(-c2nc3cc(C)ccn3c2NCC2CCCO2)ccc1O (configuration not stated)
system under test: DNA-directed RNA polymerase subunit beta (Escherichia coli (strain K12))
label value: inactive
//
molecule: Cc1ccc(C)c2[nH]c(=O)c(CCNC(=O)CC(C)C)cc12
system under test: DNA-directed RNA polymerase subunit beta (Escherichia coli (strain K12))
label value: inactive
//
molecule: CC(C)(C)c1cc(CN2CCN(CCC#N)CC2)cc(C(C)(C)C)c1O
system under test: DNA-directed RNA polymerase subunit beta (Escherichia coli (strain K12))
label value: inactive
//
molecule: C=CCOC(=O)C1=C(C)OC(N)=C(C#N)C1c1ccc(F)cc1 (configuration not stated)
system under test: DNA-directed RNA polymerase subunit beta (Escherichia coli (strain K12))
label value: inactive
//
molecule: CC(=O)C1C(c2ccc(Cl)cc2)NC(=O)NC1(O)C(F)(F)F (configuration not stated)
system under test: DNA-directed RNA polymerase subunit beta (Escherichia coli (strain K12))
label value: inactive
//
molecule: Cc1nc2c(-c3ccccc3)c(C)[nH]n2c(=O)c1Cl
system under test: DNA-directed RNA polymerase subunit beta (Escherichia coli (strain K12))
label value: inactive
//
molecule: NS(=O)(=O)c1cc2c(cc1Cl)NC(C(Cl)Cl)NS2(=O)=O (configuration not stated)
system under test: DNA-directed RNA polymerase subunit beta (Escherichia coli (strain K12))
label value: inactive
//
molecule: Cc1ccsc1C(=O)OCC(=O)c1cc2ccccc2o1
system under test: DNA-directed RNA polymerase subunit beta (Escherichia coli (strain K12))
label value: inactive
//
molecule: CCCOc1ccc(C2C(C(=O)c3ccc(C)o3)=C(O)C(=O)N2CCCn2ccnc2)cc1 (configuration not stated)
system under test: DNA-directed RNA polymerase subunit beta (Escherichia coli (strain K12))
label value: inactive
//
molecule: COc1ccc(OCC(=O)OCC(=O)Nc2ccc(S(=O)(=O)N3CCCCC3)cc2)cc1
system under test: DNA-directed RNA polymerase subunit beta (Escherichia coli (strain K12))
label value: inactive
//
molecule: Cn1c(=O)[nH]c(=O)c2c1nc(N1CCN(CCO)CC1)n2CCSc1nc2ccccc2s1
system under test: DNA-directed RNA polymerase subunit beta (Escherichia coli (strain K12))
label value: inactive
